meta.source: PubChem BioAssay (NCI)

# Tested on: MALME-3M melanoma
# PROCEDURE DETAILS: NCI-60 one-dose screen, 48 h
# EXPERIMENTAL CONTEXT: 10 µM unless noted
The panel holds about 83,000 compounds, 20% with a hit somewhere; the sample as a whole holds those more often. Activity calls are given as the source filed them. How the source made its calls: active means growth percent below 10; inactive means the rest.
// allowed return values: active, inactive

- COMPOUND: "CCNCc1ccc(O)c2ncccc12"
  GROUP LABEL: "inactive"

Q: Could you check what this test reported for `C[C@@H]1O[C@@H](O[C@@H]2C[C@H](c3ccc4c(c3O)C(=O)C3=C(C4=O)[C@@]4(O)C(=O)C[C@](C)(O)C[C@@]4(O)C=C3)O[C@H](C)[C@H]2O)C[C@H](O)[C@@H]1O` ?
A: inactive

Q: Moving on to the next compound: `COc1cc(/C=C\c2cc(/C=C\c3ccc(O)c(OC)c3)n(C(=O)CNc3ccc(Cl)cc3)n2)ccc1O`
A: inactive

Q: Param item: `C=CCn1c(SCC(=O)Nc2ccc(C(=O)/C=C/c3cc(OC)c(OC)c(OC)c3)cc2)nnc1-c1cc(-c2ccc(OC)cc2)nc2ccccc12`
A: inactive

Q: Now the compound `COc1ccc2nc3ccccc3c(NCc3ccc(F)cc3)c2c1`
A: active

Q: Now the compound CCN1C(=S)N(CC)C2C1NC(=S)N2/N=C/C=C/c1ccccc1OC (stereo unspecified)
A: inactive

###

# Tested on: T-47D breast
# PROCEDURE DETAILS: NCI-60 one-dose screen, 48 h (100 = growth as untreated, 0 = no growth, -100 = all killed)
# EXPERIMENTAL CONTEXT: 10 µM unless noted
This is part of a sample that, as a whole, favours compounds with a hit. Of some 83,000 tested, about 20% had one in any assay.
Parameter: growth. Scope: all listed entries.
Unit % implied. Number only.

- COMPOUND: "C[C@@H](CO)[C@@H]1CC[C@]2(C(=O)N3CCN(C)CC3)CC[C@]3(C)[C@H](CC[C@@H]4[C@@]5(C)CC[C@H](O)C(C)(C)[C@@H]5CC[C@]43C)[C@@H]12"
  UNIT INFO: "%"
  growth: 76.7

Q: What measured growth goes with COc1ccc(NC(=O)c2cccc(C3CCc4c(cc(OC)c(OC)c4OC)O3)c2)cc1 (stereo not drawn) ?
A: 16

Q: Then `O=C(N/N=C/c1ccc([N+](=O)[O-])cc1)c1ccc2nc(-c3ccc(Cl)cc3)[nH]c2c1` ?
A: 10.5

Q: Also need `CCCn1c(=S)sc2c1nc(C)n1c(Nc3ccccc3)nnc21` , thanks.
A: 15.6

Q: // same read-out, input: `Cc1ccc(/C=C2\CN(C(=O)C(Cl)Cl)C/C(=C\c3ccc(C)cc3)C2=O)cc1`
A: -29

Q: `COCCCOc1cc(C[C@@H](C[C@H](N)[C@@H](O)C[C@H](C(=O)NCC(C)(C)C(N)=O)C(C)C)C(C)C)ccc1OC` ?
A: 107

Q: Request: COc1cccc(C(=O)OCC(O)C(=O)NC23CC4CC(CC(C4)C2)C3)c1 (stereo not drawn)
A: 98.3

Q: Now consider `CN1CCN(Cc2ccc(NC(=O)c3cncc(C#Cc4cnn5ccccc45)c3)cc2C(F)(F)F)CC1` .
A: 35.5

Q: And the next one, O=C1CC2C=CCN2C=C1NC(=O)C1CCCCC1 (stereo not drawn) ?
A: 84

Q: Try `Cc1c(Cl)cccc1C(=O)Nc1nc2c(s1)CN(C(=O)Nc1cccc(C(F)(F)F)c1)CC2` next.
A: 46
